For each entry below, report its inhibition at 10 µM value.
test system: UACC-257; assay: NCI 60 single concentration growth inhibition; type: cell-based, human; details: Homo sapiens, UACC-257, Melanoma, read-out: GI%

Solved cases (2 shown):
{"columns": ["compound", "result"],
 "data": [
  ["COc1ccc(-c2nc3cc(Cl)c(Cl)cc3n2CC(=O)NN=Cc2cccc(OCC(=O)O)c2)cc1 [Compound 10e]", "< 5%"],
  ["COC(=O)COc1cccc(C=NNC(=O)Cn2c(-c3ccc(OC)cc3)nc3cc(Cl)c(Cl)cc32)c1 [Compound 10g]", "< 5%"]
]}

Lab note: next compound to report on.
Hi! What's the reported inhibition at 10 µM for CCOC(=O)C(C)Oc1ccc(C=NNC(=O)Cn2c(-c3ccc(OC)cc3)nc3cc(Cl)c(Cl)cc32)cc1 (stereo not drawn) [Compound 10j] on UACC-257?
< 5%

###

For each entry below, report its inhibition at 10 µM value.
test system: NCI/ADR-RES; experiment: NCI 60 single concentration growth inhibition; type: cell-based, human; conditions: Homo sapiens, Ovarian cancer, read-out: GI%
One number for each entry, in %.

Solved cases (3 shown):
{"columns": ["compound", "readout-unit", "inhibition at 10 µM"],
 "data": [
  ["COc1ccc(-c2nc3cc(Cl)c(Cl)cc3n2CC(=O)NN=Cc2cccc(OC)c2)cc1 [Compound 10c]", "%", 21.3],
  ["COc1ccc(-c2nc3cc(Cl)c(Cl)cc3n2CC(=O)NN=Cc2ccc(OC)c(O)c2)cc1 [Compound 10k]", "%", 40.1],
  ["COc1ccc(-c2nc3cc(Cl)c(Cl)cc3n2CC(=O)NN=Cc2cccc(O)c2)cc1 [Compound 10a]", "%", 44.5]
]}

inhibition at 10 µM lookup needed for COc1ccc(-c2nc3cc(Cl)c(Cl)cc3n2CC(=O)NN=Cc2ccc(O)cc2)cc1 [Compound 10b] , thanks.
28.5
